# TARGET_DESC: CD276, Q5ZPR3
# Sequence (Q5ZPR3 whole entry): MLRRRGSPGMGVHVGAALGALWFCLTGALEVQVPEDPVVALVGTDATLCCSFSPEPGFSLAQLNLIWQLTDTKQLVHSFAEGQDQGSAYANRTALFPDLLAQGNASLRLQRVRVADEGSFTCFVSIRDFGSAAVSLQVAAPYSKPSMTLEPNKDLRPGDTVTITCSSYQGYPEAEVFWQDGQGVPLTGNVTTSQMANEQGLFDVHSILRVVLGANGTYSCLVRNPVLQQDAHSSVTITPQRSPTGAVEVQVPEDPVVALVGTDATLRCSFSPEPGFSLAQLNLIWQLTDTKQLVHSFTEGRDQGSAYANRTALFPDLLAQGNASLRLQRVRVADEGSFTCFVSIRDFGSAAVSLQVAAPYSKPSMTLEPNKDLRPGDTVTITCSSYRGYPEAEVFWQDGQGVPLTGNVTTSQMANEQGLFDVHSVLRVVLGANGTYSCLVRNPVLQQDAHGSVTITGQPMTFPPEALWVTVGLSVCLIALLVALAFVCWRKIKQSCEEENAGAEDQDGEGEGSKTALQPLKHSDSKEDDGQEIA
QUANTITY_MEASURED: binding in a display sort

[[record]]
binder = "design_610_f34cc193-997c-4684-af32-2a8002718429_1837_dldesign_0_cycle1_af2pred (protein) NQVAAIAAANQALGERAYAEGLALYAADPEANREAARAAFVRAYAYFNAAAGAAIVLGDAAAAAAAQAKAEEAKAHAEALKA"
experimental_result = "not found (inactive)"

[[record]]
binder = "design_611_394c5ea9-a0d3-47c4-9d48-89ba6a28fdd0_2413_dldesign_0_cycle1_af2pred (protein) TAEQVEKLKERAIERLKKAAELDKEAAEELLKLYEEMKKVSENLGEAALLAAKAAAIAKNPEARALASQALADLSQAAILAAA"
experimental_result = "not found (inactive)"

[[record]]
binder = "design_619_5728adc2-0aea-404f-92dd-a4575c53f550_447_dldesign_0_cycle1_af2pred (protein) EELVKKAKEETTKLLEKAKEEAPGLGTLALNSFNNGFKEGVKEAYERLKKLYEWVTANATTPEQKKVAELIKKAYEVAKKAAEA"
experimental_result = "not found (inactive)"


All values here come from paper PMC13494018.
